B1: VH:VL chains; a variant is named by its letters at X, in order (parent)
chain 1: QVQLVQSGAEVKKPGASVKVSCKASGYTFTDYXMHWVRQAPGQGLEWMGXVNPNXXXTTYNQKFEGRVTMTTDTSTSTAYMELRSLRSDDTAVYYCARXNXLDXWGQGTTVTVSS
chain 2: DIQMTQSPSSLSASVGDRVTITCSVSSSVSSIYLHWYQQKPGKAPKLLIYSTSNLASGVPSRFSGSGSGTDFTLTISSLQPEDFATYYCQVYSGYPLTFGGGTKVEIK

Variants of: B1
Experiment: yeast display scFab, FACS + sequencing
measurement-type: non-specific binding call

Example entries begin here.
mutation-label | non-specific binding call
VEERDAVA | no binding
AGTKADVV chain 1 G108S | no binding
YRRGGAWD | binds
DTGTGAGD | no binding
YRREGDWA | binds

Query: Looking for the measured non-specific binding call of VAGGDAVV , can you help?
Response: no binding
